- Test system: Bacteroides dorei
- test name: growth AUC relative to DMSO control (median of replicates) (fraction); higher = more growth (less inhibition), active = hit call of the paper
- experimental parameters: 20 µM; 24 h
I'd be grateful if you could share measured growth AUC for these entries.
Respond using a number only.

Req: Read the entry CCCSP(=O)(OCC)Oc1ccc(Br)cc1Cl (stereo unspecified) and write its reported growth AUC.
Resp: 0.985

Req: Read the entry `Cc1c(COC(=O)[C@@H]2[C@H](/C=C(\Cl)C(F)(F)F)C2(C)C)cccc1-c1ccccc1` and write its reported growth AUC.
Resp: 1.01

Req: Read the entry `CCCN(CCC)c1c([N+](=O)[O-])cc(S(N)(=O)=O)cc1[N+](=O)[O-]` and write its reported growth AUC.
Resp: 0.932

Req: Read the entry `O=S(=O)(c1ccccc1)c1ccccc1` and write its reported growth AUC.
Resp: 0.993

Req: Read the entry `CNC(=O)N(C)c1nnc(C(C)(C)C)s1` and write its reported growth AUC.
Resp: 1.05

Req: Read the entry `CCOP(=S)(OCC)Oc1cc(Cl)c(Br)cc1Cl` and write its reported growth AUC.
Resp: 1.02

Req: Read the entry CCNP(=S)(OC)O/C(C)=C/C(=O)OC(C)C (stereo unspecified) and write its reported growth AUC.
Resp: 0.998

Req: Read the entry `N#Cc1c[nH]cc1-c1cccc(Cl)c1Cl` and write its reported growth AUC.
Resp: 0.871

Req: Read the entry `Cc1cccc(C)c1N` and write its reported growth AUC.
Resp: 1.01

Req: Read the entry `Cc1occc1C(=O)Nc1ccccc1` and write its reported growth AUC.
Resp: 1.04

Req: Read the entry O=c1oc2ccccc2c(O)c1C1CC(c2ccc(-c3ccccc3)cc2)Cc2ccccc21 (stereo unspecified) and write its reported growth AUC.
Resp: 0.904
